- test-system: His6-AvaR1 (Streptomyces avermitilis)
- Sequence: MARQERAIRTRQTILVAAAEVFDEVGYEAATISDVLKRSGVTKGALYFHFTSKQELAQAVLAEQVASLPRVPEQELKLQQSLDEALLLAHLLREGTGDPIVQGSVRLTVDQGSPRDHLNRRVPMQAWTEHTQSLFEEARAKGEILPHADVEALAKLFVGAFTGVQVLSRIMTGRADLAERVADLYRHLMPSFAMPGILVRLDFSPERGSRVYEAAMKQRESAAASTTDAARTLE
- run-description: EMSA
- condition: EMSA: 0.3 nM DIG-labeled probe; buffer, salt, pH and temperature as in Zhu et al. 2016 (not given)
metric-name: binding

item-sequence	reported-measurement
GGGTAGTGTCAAGGTCGCTGACTTTGATGATTAACTGATGATCGTGGGATTCTGAGGTGGTGTTCGCGAGGGTGAAGGAGTTCCTTCCTGGAGACATCCGTGCCCCGGATGGCGGTCCACAATTCACGAGTGGGATGCGCAGTGGGTCGCGTGCTGCAACACCGAATGGAATACCGGGTGACCGGTATGTATGGC (double strand) [aveRp2]	binds
CCGCTGGAGTCTGAGAAGCCATGGAAGCATTCACCACGCACACCGGCCGGGCCGTCCCGCTGCGCCGCAGCAACGTCGACACCGACCAGATCATCCCCGCCCACTGGCTCAAGAAGGTCACCAGGGACGGTTTCGAGGACGGGCTGTTCGAGGCCTGGCGCAAGGACGAGTCCTTCATCCTCAACCG (double strand) [leuDp]	binds
ACTGATGCGCGAGAAAACCGCACAAGCGGTTTGTTAAAGTTGCTGGACCCCCATCAGCAACGGAGCGCCCGATGGTCAAGCAGGTCAGACAGGAACGCGCGATCCGCACGCGCAACGCCTTGATCGAGTCC (double strand) [avaR3p]	binds
